Assay: Single-dose nebulized nose-only inhalation PK in healthy rats
Format: in vivo, rat
Conditions: male, Sprague Dawley, rat, in vivo, inhaled or intranasal; single nebulized nose-only inhaled dose, healthy rats; read-out: Plasma Cmax
test readout: Cmax (ng/mL)

line notation | value reported
CN[C@H](CC(C)C)C(=O)N[C@H]1C(=O)N[C@@H](CC(N)=O)C(=O)N[C@H]2C(=O)N[C@H]3C(=O)N[C@H](C(=O)N[C@H](C(=O)O)c4cc(O)cc(O)c4-c4cc3ccc4O)[C@H](O)c3ccc(c(Cl)c3)Oc3cc2cc(c3O[C@@H]2O[C@H](CO)[C@@H](O)[C@H](O)[C@H]2O[C@H]2C[C@](C)(N)[C@H](O)[C@H](C)O2)Oc2ccc(cc2Cl)[C@H]1O | 8000

---

Experiment: Single-dose nebulized nose-only inhalation PK in healthy rats
Assay type: in vivo, rat
Details: male, Sprague Dawley, rat, in vivo, 120 h
Below, each of the molecules is paired with its reported Drug lung level at 120 h value.
test readout: Drug lung level at 120 h (%)

molecule | measure unit | value reported
CCCCCCCCCCCCCC(=O)OCCNC1(C)CC(OC2C(Oc3c4cc5cc3Oc3ccc(cc3Cl)C(O)C3NC(=O)C(NC(=O)C5NC(=O)C(CC(N)=O)NC(=O)C(NC(=O)C(CC(C)C)NC)C(O)c5ccc(c(Cl)c5)O4)c4ccc(O)c(c4)-c4c(O)cc(O)cc4C(C(=O)O)NC3=O)OC(CO)C(O)C2O)OC(C)C1O (stereo not drawn) | % | 1.5
CCCCCCCCCCCC(=O)NCCNC1(C)CC(OC2C(Oc3c4cc5cc3Oc3ccc(cc3Cl)C(O)C3NC(=O)C(NC(=O)C5NC(=O)C(CC(N)=O)NC(=O)C(NC(=O)C(CC(C)C)NC)C(O)c5ccc(c(Cl)c5)O4)c4ccc(O)c(c4)-c4c(O)cc(O)cc4C(C(=O)O)NC3=O)OC(CO)C(O)C2O)OC(C)C1O (stereo not drawn) | % | 0.1
CCCCCCCCCCNCCN[C@@]1(C)C[C@H](O[C@H]2[C@H](Oc3c4cc5cc3Oc3ccc(cc3Cl)[C@@H](O)[C@@H](NC(=O)[C@@H](CC(C)C)NC)C(=O)N[C@@H](CC(N)=O)C(=O)N[C@H]5C(=O)N[C@H]3C(=O)N[C@H](C(=O)N[C@H](C(=O)O)c5cc(O)cc(O)c5-c5cc3ccc5O)[C@H](O)c3ccc(c(Cl)c3)O4)O[C@H](CO)[C@@H](O)[C@@H]2O)O[C@@H](C)[C@H]1O | % | 105

---

Overview of recorded MIC for various compounds
System: S. aureus
Assay: Expanded panel broth microdilution MIC/MBC
Conditions: Staphylococcus aureus, ATCC43300 / MRSA, S. aureus ATCC 43300, MRSA

compound | MIC [µg/mL]
CCCCCCCCCCNCCN[C@@]1(C)C[C@H](O[C@H]2[C@H](Oc3c4cc5cc3Oc3ccc(cc3Cl)[C@@H](O)[C@@H](NC(=O)[C@@H](CC(C)C)NC)C(=O)N[C@@H](CC(N)=O)C(=O)N[C@H]5C(=O)N[C@H]3C(=O)N[C@H](C(=O)N[C@H](C(=O)O)c5cc(O)cc(O)c5-c5cc3ccc5O)[C@H](O)c3ccc(c(Cl)c3)O4)O[C@H](CO)[C@@H](O)[C@@H]2O)O[C@@H](C)[C@H]1O [RV40, N-decylaminoethylvancomycin] | 0.008
CN[C@H](CC(C)C)C(=O)N[C@H]1C(=O)N[C@@H](CC(N)=O)C(=O)N[C@H]2C(=O)N[C@H]3C(=O)N[C@H](C(=O)N[C@H](C(=O)O)c4cc(O)cc(O)c4-c4cc3ccc4O)[C@H](O)c3ccc(c(Cl)c3)Oc3cc2cc(c3O[C@@H]2O[C@H](CO)[C@@H](O)[C@H](O)[C@H]2O[C@H]2C[C@](C)(N)[C@H](O)[C@H](C)O2)Oc2ccc(cc2Cl)[C@H]1O [Vancomycin, vancomycin] | 1
CCCCCCCCCCNCCN[C@@]1(C)C[C@H](O[C@H]2[C@H](Oc3c4cc5cc3Oc3ccc(cc3Cl)[C@@H](O)[C@@H](NC(=O)[C@@H](CC(C)C)NC)C(=O)N[C@@H](CC(N)=O)C(=O)N[C@H]5C(=O)N[C@H]3C(=O)N[C@H](C(=O)N[C@H](C(=O)O)c5cc(O)c(CNCP(=O)(O)O)c(O)c5-c5cc3ccc5O)[C@H](O)c3ccc(c(Cl)c3)O4)O[C@H](CO)[C@@H](O)[C@@H]2O)O[C@@H](C)[C@H]1O [Telavancin, telavancin] | 0.06
